# tested.on: Human immunodeficiency virus type 1 reverse transcriptase (Human immunodeficiency virus 1, UniProt Q72547)
# method.notes: Inhibitory concentration against wild type HIV-1/138Lys reverse transcriptase (RT) using [3H]dGTP as a radioligand
pIC50: −log10 of the molar value.
outcome.measure: pIC50

Solved entries:
The value of pIC50 measured for the molecule Cc1cn([C@@H]2O[C@H](CO[Si](C)(C)C(C)(C)C)[C@@]3(OS(=O)(=O)C=C3N)[C@H]2O[Si](C)(C)C(C)(C)C)c(=O)n(CCCO)c1=O turned out to be < 4.00

Input COC(=O)P(=O)(OC)OCCCn1c(=O)c(C)cn([C@@H]2O[C@H](CO[Si](C)(C)C(C)(C)C)[C@@]3(OS(=O)(=O)C=C3N)[C@H]2O[Si](C)(C)C(C)(C)C)c1=O (stereo partly drawn) . Output pIC50: < 3.30

Please turn your attention to the following entry.
get_value(item= Cc1cn([C@@H]2O[C@H](CO[Si](C)(C)C(C)(C)C)[C@@]3(OS(=O)(=O)C=C3N)[C@H]2O[Si](C)(C)C(C)(C)C)c(=O)n(C)c1=O , readout=pIC50) returns < 4.00
